Values from patent US10329532B2

- Test system: bioengineered heart muscle (BHM)
- Experimental protocol: Isometric contraction measurements of BHM (twitch tension/force of contraction) in organ baths
- Assay type: cell-based, human
- Condition: 29-30 day old BHM (increased culture time); read-out: calcium EC50 (twitch tension)
Reported endpoint: pEC50
On this scale, pEC50 is minus log10 of a concentration expressed in M (mol/L).

Which pEC50 is listed for [Ca+2] [calcium] ?
3.15
